# measured.target: T1, human GPVI on platelets (human, UniProt Q9HCN6 21-339)
# T1 sequence (looked up): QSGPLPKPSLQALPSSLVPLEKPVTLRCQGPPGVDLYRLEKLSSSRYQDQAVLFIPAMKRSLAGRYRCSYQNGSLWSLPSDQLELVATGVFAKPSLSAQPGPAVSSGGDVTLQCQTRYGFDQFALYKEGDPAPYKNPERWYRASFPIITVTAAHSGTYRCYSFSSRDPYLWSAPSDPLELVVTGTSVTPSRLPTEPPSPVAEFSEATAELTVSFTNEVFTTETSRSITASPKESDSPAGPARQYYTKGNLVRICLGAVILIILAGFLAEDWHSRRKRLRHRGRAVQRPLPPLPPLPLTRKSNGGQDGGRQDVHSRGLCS
# assay.explanation: cell-based or functional assay
// values below are reported IC50 for inhibition of collagen induced platelet aggregation (human PRP), Test 1
observed.property: IC50 for inhibition of collagen induced platelet aggregation (human PRP), Test 1 (µg/mL)

# binder, obs.value
measured = [
    ("humanized anti-GPVI Fab VL1/VH3 (Fab, V domains shown, Recombinant Fab: VH fused to CH1 of human IGHG1 (Q569F4), HC ends in DKTHT; VL fused to human constant kappa (Q502W4); also called VL1 with VH3) VH: EVQLLESGPGLVAPSGSLSITCTVSGFSLTGYGVNWVRQPPGKGLEWLGMIWGDGSTDYQSTLKSRLSISKDNSKSQVFLKMNSLRTDDTARYYCARDLPMDYWGLGTSVTVSS VL: DIQMTQSPSSLSASVGGRVTITCKASQDINKYIAWYQHKPGKGPSLLIHYTSTLQPGVPSRFSGSGSGRDYSFSISNLQPEDIATYYCLQYANLLTFGGGTKLEIKR", 1.7),
    ("humanized anti-GPVI Fab VL3/VH2 (Fab, V domains shown, Recombinant Fab: VH fused to CH1 of human IGHG1 (Q569F4), HC ends in DKTHT; VL fused to human constant kappa (Q502W4); also called VL3 with VH2) VH: QVQLQESGPGLVAPSQSLSITCTVSGFSLTGYGVNWVRQPPSRGLEWLGMIWGDGSTDYQSTLKSRLSISKDNSKSQVFLKMNSLTTDDTARYYCARDLPMDYWGQGTSVTVSS VL: DIQMTQSPSSLSASVGGRVTITCKASQDINKYIAWYQHKPGKGPSLLIHYTSTLQPGVPSRFSGSGSGRDYSFSISNLQPEDIATYYCLQYALLLTFGGGTKLEIKR", 1.9),
]
